These entries and their values trace back to patent US11319322B2.

molecular target: KIF5B-RET-BaF3 (Homo sapiens, UniProt P07949); construct: fused on or other part: P33176 (Kinesin-1 heavy chain); assay: Growth inhibition of KIF5B-RET-BaF3 cells stably transfected with kinase (MTS); type: cell-based; details: 48 h, read-out: KIF5B-RET (IC50/nM)
Sequence (P07949 whole entry, change not shown, the tested form may be a part): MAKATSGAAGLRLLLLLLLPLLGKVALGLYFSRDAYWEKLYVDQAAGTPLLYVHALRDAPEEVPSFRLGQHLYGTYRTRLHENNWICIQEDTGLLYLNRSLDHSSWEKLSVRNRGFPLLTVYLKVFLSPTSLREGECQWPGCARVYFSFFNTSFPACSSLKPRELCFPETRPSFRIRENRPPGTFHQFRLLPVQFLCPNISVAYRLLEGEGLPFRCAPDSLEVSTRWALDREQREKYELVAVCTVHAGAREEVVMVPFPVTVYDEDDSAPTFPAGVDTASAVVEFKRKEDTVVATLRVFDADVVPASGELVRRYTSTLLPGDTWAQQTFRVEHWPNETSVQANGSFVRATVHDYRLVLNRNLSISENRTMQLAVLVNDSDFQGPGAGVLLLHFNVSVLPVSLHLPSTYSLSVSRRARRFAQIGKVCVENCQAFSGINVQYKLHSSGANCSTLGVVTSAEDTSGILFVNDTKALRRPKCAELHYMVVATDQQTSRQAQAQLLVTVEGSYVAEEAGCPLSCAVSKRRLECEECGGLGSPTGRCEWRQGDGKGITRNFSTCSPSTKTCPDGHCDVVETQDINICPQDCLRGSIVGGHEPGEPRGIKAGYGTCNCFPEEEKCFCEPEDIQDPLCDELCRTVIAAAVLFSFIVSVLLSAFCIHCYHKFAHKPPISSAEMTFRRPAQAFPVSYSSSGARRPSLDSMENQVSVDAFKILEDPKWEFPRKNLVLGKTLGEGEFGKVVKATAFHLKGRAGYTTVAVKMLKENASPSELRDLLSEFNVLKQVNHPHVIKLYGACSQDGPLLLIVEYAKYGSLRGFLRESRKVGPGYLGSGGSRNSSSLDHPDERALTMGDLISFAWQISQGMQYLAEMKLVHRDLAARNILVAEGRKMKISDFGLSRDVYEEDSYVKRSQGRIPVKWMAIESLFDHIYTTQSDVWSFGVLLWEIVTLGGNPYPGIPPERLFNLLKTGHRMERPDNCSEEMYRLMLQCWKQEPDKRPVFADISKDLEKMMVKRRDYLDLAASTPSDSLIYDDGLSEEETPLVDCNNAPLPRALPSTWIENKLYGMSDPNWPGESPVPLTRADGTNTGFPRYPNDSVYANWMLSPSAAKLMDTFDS
measured metric: log10 of GI50 (log10 of the value in nM)
Scale: decimal log of GI50, GI50 in nM.

Cc1ccc(-c2nc(Oc3ccc(Cl)c(NC(=O)c4ccc(CN5CCN(C)CC5)c(C(F)(F)F)c4)c3)c3c(ccn3C)n2)cc1 ... 3.50

// log10 of GI50 (KIF5B-RET-BaF3 (Homo sapiens, UniProt P07949)) for CN1CCN(Cc2ccc(NC(=O)c3cc(Oc4cc(-c5ccncc5)nc5sccc45)ccc3Cl)cc2C(F)(F)F)CC1 = 2.70

// log10 of GI50 (KIF5B-RET-BaF3 (Homo sapiens, UniProt P07949)) for CN1CCN(Cc2ccc(C(=O)Nc3cc(Oc4nc(-c5ccncc5)nc5ccn(C)c45)ccc3Cl)cc2C(F)(F)F)CC1 = 1.85

###

target: CCDC6-RET-BaF3 (Homo sapiens, UniProt P07949); construct: fused on or other part: Q16204 (Coiled-coil domain-containing protein 6); experiment: Growth inhibition of CCDC6-RET-BaF3 cells stably transfected with kinase (MTS); assay type: cell-based; details: 48 h, read-out: CCDC6-RET (IC50/nM)
Sequence (P07949 whole entry, change not shown, the tested form may be a part): as above
Classes are defined on GI50 with ranges low = under 500 nM, medium = from 500 nM up to 2000 nM, high = 2000 nM and over

As a guide, the following entries are already answered.
CC(=O)NC1CCN(c2ccc(NC(=O)c3ccc(C)c(Oc4nc(-c5ccncc5)nc5c4cnn5C)c3)cc2C(F)(F)F)CC1 ... medium
CN1CCN(Cc2ccc(NC(=O)c3cc(Oc4nc(-c5ccncc5)nc5c4ncn5C)ccc3Cl)cc2C(F)(F)F)CC1 ... low
CN1CCN(Cc2ccc(C(=O)Nc3cc(Oc4nc(-c5ccsc5)nc5cc[nH]c45)ccc3Cl)cc2C(F)(F)F)CC1 ... high

Which band does CN1CCN(Cc2ccc(NC(=O)c3cccc(Oc4cc(-c5cccnc5)nc5[nH]ccc45)c3)cc2C(F)(F)F)CC1 fall in?
medium

Which band does Cc1ccc(C(=O)Nc2ccc(CN3CCN(C)CC3)c(C(F)(F)F)c2)cc1Oc1nc(-c2ccccc2)nc2c1cnn2C fall in?
low

Which band does CN1CCN(Cc2ccc(C(=O)Nc3cccc(Oc4nc(-c5cccnc5)nc5c4cnn5C)c3)cc2C(F)(F)F)CC1 fall in?
medium

Which band does CCS(=O)(=O)NC1CCN(c2ccc(NC(=O)c3ccc(C)c(Oc4nc(-c5ccncc5)nc5ccn(C)c45)c3)cc2C(F)(F)F)CC1 fall in?
high

Which band does Cc1ccc(Nc2nc(Oc3cc(C(=O)Nc4ccc(CN5CCN(C)CC5)c(C(F)(F)F)c4)ccc3C)c3cnn(C)c3n2)cc1 fall in?
low

Which band does CN1CCN(Cc2ccc(NC(=O)c3cc(Oc4nc(-c5cccnc5)nc5ccsc45)ccc3Cl)cc2C(F)(F)F)CC1 fall in?
high

Which band does CN1CCN(Cc2ccc(C(=O)Nc3cc(Oc4nc(-c5ccoc5)nc5ccn(C)c45)ccc3Cl)cc2C(F)(F)F)CC1 fall in?
medium

Which band does Cc1cn(-c2cc(NC(=O)c3ccc(C)c(Oc4nc(-c5ccncc5)nc5c4cnn5C)c3)cc(C(F)(F)F)c2)cn1 fall in?
medium
